# yeast fitness values compiled below
B1: tRNA (parent)
chain: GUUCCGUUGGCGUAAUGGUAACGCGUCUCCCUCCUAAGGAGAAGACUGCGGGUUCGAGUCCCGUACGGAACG

- Variants of: B1
- assay.protocol: yeast fitness relative to wild type (ratio to wild type); higher = fitter; tRNA-Arg(CCU), competitive growth, 37 C, YPD
Fewer inactive variants are shown than the library holds.
Please respond with just the number, no unit label.

Worked cases, yeast fitness given:
U2C A40U = 1.05
C11A A14C = 0.683
U2A U7A = 0.666

// query yeast fitness value for entry C11U C24G C33G 0.541

// query yeast fitness value for entry G25A C29U 0.997

// query yeast fitness value for entry A14G C30U A45U 0.675

// query yeast fitness value for entry C4A A14U 0.698

// query yeast fitness value for entry C24G G68A 0.653
